- Test system: six human cell types
- test.name: Cytotoxicity analysis, resazurin viability assay
Square brackets hold non-standard residues; d marks the D form. Peptide text beside a SMILES is read from it. NMeThr(4R-Me,4-(CH2)6NHAc) = CN[C@H](C(=O)O)[C@H](O)[C@H](C)CCCCCCNC(C)=O; NMeL = CN[C@@H](CC(C)C)C(=O)O; NMeV = CN[C@H](C(=O)O)C(C)C; dNMeA = CN[C@H](C)C(=O)O; Abu = CC[C@H](N)C(=O)O
readout.name: CC50 (µM)

compound="CC[C@@H]1NC(=O)[C@H]([C@H](O)[C@H](C)CCCCCCNC(C)=O)N(C)C(=O)[C@H](C(C)C)N(C)C(=O)[C@H](CC(C)C)N(C)C(=O)[C@H](CC(C)C)N(C)C(=O)[C@@H](C)NC(=O)[C@H](C)NC(=O)[C@H](CC(C)C)N(C)C(=O)[C@H](C(C)C)NC(=O)[C@H](CC(C)C)N(C)C(=O)[C@@H](C)N(C)C1=O [CRV431] (cyclo(A[dA][NMeL][NMeL][NMeV][NMeThr(4R-Me,4-(CH2)6NHAc)][Abu][dNMeA][NMeL]V[NMeL]))" number=23.6
